B1: PPP2R2B (parent)
chain: RNTKRDVTLEASRENSKPRAILKP

# Variants of: B1
# assay-explanation: protein stability index of a GFP-peptide fusion (GPS, HEK-293T) (PSI 1-6); higher = more stable;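 note: lentivirally expressed fusions sorted by FACS into six bins by GFP to DsRed ratio, PSI derived from sequencing read proportions per bin multiplied by bin number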
# condition-context: c terminus: a fixed tail appended
Reported protein stability index values follow for various variants
A bare number is all that is needed in reply.

Ask | I am curious: what protein stability index value has been reported for `T8D` ?
Reply | 5.02

Ask | Follow-up entry: `I21A`
Reply | 4.8

Ask | Entry to check: `R5T`
Reply | 4.94
